# experimental system: UNC-45 (C. elegans), full-length recombinant protein (C. elegans)
# protocol summary: ITC
result type: pKd
One number for each entry, as −log10 of the molar value.

Could you report pKd for every entry in the following list?
1. EDASRMEEVD [Hsp90 (DAF-21) C-terminal peptide …]
2. AGGPTIEEVD [Hsp70 (HSP-1) C-terminal peptide …]

Result:
1: 4.85; 2: 3.92
